measurementNotes: Ratio of drug level in brain to plasma in C57BL/6 mouse at 0.03 mg/kg, sc after 30 mins
Type: ADME, organism-based
reportedConditions: read-out: BPR
experimentalEndpoint: Kp at 0.5 h

chemicalString: Clc1ccc2c(NC3=NC[C@@]4(CN5CCC4CC5)O3)ncnn12
experimentalEndpoint: Kp at 0.5 h
dataValue: 1.9

====

measurementNotes: Fraction unbound in C57BL/6 mouse plasma at 0.03 mg/kg, sc after 30 mins
Type: ADME, organism-based
reportedConditions: in vivo, 0.5 h

chemicalString: Clc1ccc2c(NC3=NC[C@@]4(CN5CCC4CC5)O3)ncnn12
Cp(f): 50 to 75%

====

measurementNotes: Plasma concentration in C57BL/6 mouse at 0.03 mg/kg, sc after 30 mins
Format: ADME, organism-based

chemicalString: Clc1ccc2c(NC3=NC[C@@]4(CN5CCC4CC5)O3)ncnn12
concentration at 0.5 h: 18 nM

====

reportedConditions: mouse, in vivo, sc, 0.01 mg/kg, 0.5 h
experimentalEndpoint: Cp(f)

chemicalString: Brc1ccc2c(NC3=NC[C@@]4(CN5CCC4CC5)O3)ncnn12
dataValue: 50 to 75%

====

measurementNotes: in vivo
reportedConditions: C57BL/6, mouse, brain/plasma, sc, 0.01 mg/kg

chemicalString: Brc1ccc2c(NC3=NC[C@@]4(CN5CCC4CC5)O3)ncnn12
Kp at 0.5 h: 4.9
